Reported Maximum response at 100 nM hFcgammaRIA (RU) by item:
# target: human Fc gamma receptor 1A (human)
# protocol-details: SPR (Biacore T200), antibody amine-coupled on CM5 chip, receptor as analyte
Write it as a number; the unit RU goes unstated.

substance	data-value
Anti-CD3 human IgG1 antibody, DANAPA Fc variant (D265A/N297A/P329A)	11
Anti-CD3 human IgG1 antibody, LALAGA Fc variant (L234A/L235A/G237A)	15
Anti-CD3 human IgG1 antibody, LALAPG Fc variant (L234A/L235A/P329G)	18
Anti-CD3 human IgG1 antibody, GADAPA Fc variant (G237A/D265A/P329A)	16
Anti-CD3 human IgG1 antibody, LALASKPA Fc variant (L234A/L235A/S267K/P329A)	9

Dear colleague, please send me the reported Maximum response at 100 nM hFcgammaRIA (RU) for Anti-CD3 human IgG1 antibody, GADAPASK Fc variant (G237A/D265A/P329A/S267K) when you can. 10

Supply measured Maximum response at 100 nM hFcgammaRIA (RU) of Anti-CD3 human IgG1 antibody, DAPASK Fc variant (D265A/P329A/S267K) in your reply. 13
